Each recorded value in this set is attributed to ChEMBL document CHEMBL1201862.

- tgt: UniProt P49327
- Sequence (P49327 whole entry, the tested form may be a part): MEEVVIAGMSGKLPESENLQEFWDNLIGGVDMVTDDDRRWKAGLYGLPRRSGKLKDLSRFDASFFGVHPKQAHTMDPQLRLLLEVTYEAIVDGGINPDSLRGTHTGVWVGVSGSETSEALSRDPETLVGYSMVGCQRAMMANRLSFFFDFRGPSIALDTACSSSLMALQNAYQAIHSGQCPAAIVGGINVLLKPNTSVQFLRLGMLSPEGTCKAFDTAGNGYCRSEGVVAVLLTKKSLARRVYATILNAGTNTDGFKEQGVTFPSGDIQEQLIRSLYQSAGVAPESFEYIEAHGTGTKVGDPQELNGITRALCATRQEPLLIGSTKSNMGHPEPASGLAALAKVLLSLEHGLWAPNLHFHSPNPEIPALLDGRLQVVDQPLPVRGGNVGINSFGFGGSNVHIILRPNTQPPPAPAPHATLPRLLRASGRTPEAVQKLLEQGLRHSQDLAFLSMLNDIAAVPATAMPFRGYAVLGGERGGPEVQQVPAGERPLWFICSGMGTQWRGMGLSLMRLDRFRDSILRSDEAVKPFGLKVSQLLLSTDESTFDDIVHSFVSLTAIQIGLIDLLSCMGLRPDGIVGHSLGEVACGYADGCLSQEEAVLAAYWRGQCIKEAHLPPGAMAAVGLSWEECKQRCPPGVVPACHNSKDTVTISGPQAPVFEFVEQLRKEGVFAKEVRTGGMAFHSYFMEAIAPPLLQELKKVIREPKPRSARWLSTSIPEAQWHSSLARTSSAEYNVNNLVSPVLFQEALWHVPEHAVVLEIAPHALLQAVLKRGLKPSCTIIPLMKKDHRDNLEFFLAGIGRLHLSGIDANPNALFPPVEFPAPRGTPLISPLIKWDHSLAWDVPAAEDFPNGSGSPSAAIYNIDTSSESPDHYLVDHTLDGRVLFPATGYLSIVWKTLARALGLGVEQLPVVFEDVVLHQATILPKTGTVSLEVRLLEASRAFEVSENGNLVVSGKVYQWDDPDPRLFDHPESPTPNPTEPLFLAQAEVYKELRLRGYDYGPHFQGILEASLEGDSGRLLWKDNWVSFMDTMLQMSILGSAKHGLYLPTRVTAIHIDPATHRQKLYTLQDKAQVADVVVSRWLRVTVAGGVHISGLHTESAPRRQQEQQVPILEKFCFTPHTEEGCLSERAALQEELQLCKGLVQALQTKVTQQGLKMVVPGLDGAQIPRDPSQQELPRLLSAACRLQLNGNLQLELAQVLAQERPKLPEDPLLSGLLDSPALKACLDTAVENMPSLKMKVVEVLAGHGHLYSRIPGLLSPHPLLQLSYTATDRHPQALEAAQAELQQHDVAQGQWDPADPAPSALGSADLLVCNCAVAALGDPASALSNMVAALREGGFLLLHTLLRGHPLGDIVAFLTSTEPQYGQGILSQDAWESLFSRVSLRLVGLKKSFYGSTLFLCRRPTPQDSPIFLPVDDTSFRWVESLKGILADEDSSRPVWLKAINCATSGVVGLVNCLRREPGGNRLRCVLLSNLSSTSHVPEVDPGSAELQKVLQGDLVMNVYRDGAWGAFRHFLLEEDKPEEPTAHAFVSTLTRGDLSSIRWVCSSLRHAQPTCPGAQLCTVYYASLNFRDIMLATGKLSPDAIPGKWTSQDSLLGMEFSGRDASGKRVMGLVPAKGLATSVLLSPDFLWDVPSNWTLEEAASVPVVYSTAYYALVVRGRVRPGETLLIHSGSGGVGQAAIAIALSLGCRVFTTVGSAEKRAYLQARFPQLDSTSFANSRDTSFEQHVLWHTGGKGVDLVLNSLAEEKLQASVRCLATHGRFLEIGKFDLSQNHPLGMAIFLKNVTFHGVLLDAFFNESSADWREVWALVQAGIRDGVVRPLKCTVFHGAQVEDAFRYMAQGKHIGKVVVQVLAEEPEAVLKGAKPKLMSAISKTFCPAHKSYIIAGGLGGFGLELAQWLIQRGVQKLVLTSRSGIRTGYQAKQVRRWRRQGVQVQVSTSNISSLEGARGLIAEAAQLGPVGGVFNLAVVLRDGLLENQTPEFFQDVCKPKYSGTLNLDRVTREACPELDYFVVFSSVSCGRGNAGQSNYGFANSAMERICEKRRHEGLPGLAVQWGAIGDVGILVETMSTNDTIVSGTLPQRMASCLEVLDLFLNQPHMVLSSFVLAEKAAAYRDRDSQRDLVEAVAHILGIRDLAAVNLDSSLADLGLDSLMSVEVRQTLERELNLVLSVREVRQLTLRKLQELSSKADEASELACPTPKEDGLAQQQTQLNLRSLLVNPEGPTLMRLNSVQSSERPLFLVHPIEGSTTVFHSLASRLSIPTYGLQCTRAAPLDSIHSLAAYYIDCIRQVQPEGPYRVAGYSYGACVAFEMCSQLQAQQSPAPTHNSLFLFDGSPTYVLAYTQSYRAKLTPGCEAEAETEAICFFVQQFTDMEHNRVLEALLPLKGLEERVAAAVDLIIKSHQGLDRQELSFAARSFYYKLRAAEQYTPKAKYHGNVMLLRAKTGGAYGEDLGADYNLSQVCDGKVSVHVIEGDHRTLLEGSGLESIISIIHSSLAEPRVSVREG
- run_description: FAS thioesterase domain inhibitors, dose response, biochemical, kinetic fluorescence intensity (AID 624326);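 also: rate of fluorescence rise from hydrolysis of a fluorogenic O-methyl fluorescein ester substrate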
- Assay type: functional
The source made the active and inactive calls.
This section presents compounds with their documented IC50 values.

O=c1oc(-c2ccco2)nc2sc3c(c12)CCCCC3    3.45 µM (active)
O=C(CCN1C(=O)/C(=C\c2ccccc2Cl)SC1=S)Nc1cccnc1    6.84 µM (active)
O=C(O)c1ccc(Cl)c(NC(=S)NC(=O)c2cccc(COc3ccccc3)c2)c1    4.47 µM (active)
O=C(Cn1cc([N+](=O)[O-])ccc1=O)N1CCc2ccccc2C1    5.97 µM (active)
O=C(COC(=O)c1cc([N+](=O)[O-])ccc1NCCO)Nc1ccc2c(c1)OCO2    4.51 µM (active)

// below: IC50 requested for another compound
Looking up Cc1nnc(SC(C(=O)Nc2ccc(Cl)c([N+](=O)[O-])c2)c2ccccc2)nc1O (stereo unspecified) , I see its IC50 listed as 15.9 µM (active)

###

- tgt: FAD-linked sulfhydryl oxidase ALR (Homo sapiens, UniProt P55789)
- Sequence (P55789 whole entry): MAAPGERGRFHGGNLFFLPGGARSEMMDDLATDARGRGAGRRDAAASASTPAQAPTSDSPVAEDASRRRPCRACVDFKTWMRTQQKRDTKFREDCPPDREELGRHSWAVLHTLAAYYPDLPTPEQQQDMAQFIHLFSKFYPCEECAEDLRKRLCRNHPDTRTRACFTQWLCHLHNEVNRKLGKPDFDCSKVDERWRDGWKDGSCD
- run_description: inhibitors of human ALR sulfhydryl oxidase, dose response, biochemical, H2O2 detection, luminescence, cherry-pick (AID 493248)
The source made the active and inactive calls.
measured_endpoint: AC50

In the examples that follow, each entry is paired with its recorded AC50.
Cc1cc(N2CCN(c3ccccc3)CC2)nc(N)n1    4.38 µM (active)
COc1ccc(/C=C2/SC(=O)N(CCCCCC(=O)Nc3ccccc3C(=O)O)C2=S)cc1    3.05 µM (active)
CC(=O)NNc1nc(-c2ccc(NC(C)=O)cc2)cs1    0.58 µM (active)
O=C(NCc1cccnc1)c1ccc2c(c1)N(Cc1ccccc1)CCS2    3.31 µM (active)
COc1cc(/C=N/n2c(S)nnc2C2CCCCC2)ccc1O    2.3 µM (active)

Looking up COc1cc(/C=N/Nc2ccc(Cl)c(C(=O)O)c2)ccc1OC(=O)c1ccccc1F , I see its AC50 listed as 5.62 µM (active)

Looking up Cc1ccc(S(=O)(=O)N2[C@@H](c3ccc(Cl)cc3)C(C(=O)O)=CC[C@H]2c2ccc(Cl)c(Cl)c2)cc1 , I see its AC50 listed as 6.86 µM (active)

Looking up Fc1ccc(-c2ccnc(S)n2)cc1 , I see its AC50 listed as 0.301 µM (active)

Looking up O=C1CC(=O)N(c2ccccc2)N1c1ccccc1 , I see its AC50 listed as 4.37 µM (active)

###

- System: INS1
- run_description: beta cell apoptosis inhibitors, cytokine rescue, dose response, luminescence, retest (AID 449756);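 also: cell death triggered by IL-1 beta plus TNF-alpha plus IFN-gamma mixture; protective hits raise ATP signal compared with cytokine alone wells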
- Type: functional, cell-based
- setup_conditions: Rattus norvegicus
Calls of active or inactive are those of the source.
This section presents compounds with their documented AC50 values.

Looking up COc1cc(C(=O)N/N=C(\C)c2ccccn2)cc(OC)c1OC , I see its AC50 listed as 1.94 µM (active)

Looking up Cc1[nH]n(-c2ccccc2)c(=O)c1N=Nc1c(O)cc(S(=O)(=O)N(C)C)c2ccccc12 , I see its AC50 listed as 0.949 µM (active)

Looking up O=C(NCc1ccccc1)C1=C[C@@H](c2csc3ccccc23)C[C@@H](OCCCCO)O1 , I see its AC50 listed as 1.43 µM (active)

Looking up C/C(=N\NC(=O)c1ccc(C)cc1)c1c(C)nn(-c2ccccc2)c1O , I see its AC50 listed as 3.15 µM (active)

Looking up CCCCCc1ccc(OCCCC[n+]2cccc(C)c2)c(CCCCC)c1 , I see its AC50 listed as 1.64 µM (active)

###

- tgt: Ubiquitin-conjugating enzyme E2 N (Homo sapiens, UniProt P61088)
- Sequence (P61088 whole entry): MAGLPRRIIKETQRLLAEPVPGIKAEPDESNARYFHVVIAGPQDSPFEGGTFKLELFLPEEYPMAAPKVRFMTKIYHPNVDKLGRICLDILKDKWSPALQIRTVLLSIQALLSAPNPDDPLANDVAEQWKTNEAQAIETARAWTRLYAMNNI
- Assay type: functional
The source made the active and inactive calls.
Could you please pick one outcome from this set? T (active), F (inactive)

CCCCCc1ccc(OCCCC[n+]2cccc(C)c2)c(CCCCC)c1    F
CCN1CCN(Cc2ccc(NC(=O)c3ccc(C)c(NC(=O)C(=O)c4c[nH]c5ccccc45)c3)cc2C(F)(F)F)CC1    F
CC(=O)Nc1ccc(NC(=O)c2nc(S(=O)(=O)Cc3ccccc3)ncc2Cl)cc1    T
Cc1cc(C)cc(OCC(=O)NNC(=S)NC(=O)C2CC2)c1    T
CCc1ccc(N(C(=O)c2snc(C(N)=O)c2N)C(C(=O)NCC2CCCO2)c2ccco2)cc1 (stereo not given)    F

Lookup: Write down the call the test reported for this molecule. Item: CN(C)CCNc1ncnc2c1sc1nc(-c3ccccc3)c3c(c12)CCCC3
Found: T

Lookup: Write down the call the test reported for this molecule. Item: Cc1cccc(-c2nc3ccc(C(=O)NCCN4CCN(C)CC4)cc3nc2-c2cccc(C)c2)c1
Found: F

Lookup: Write down the call the test reported for this molecule. Item: CN1CCN(CCCNC(=O)c2ccc(/C=C3\Oc4ccccc4N(Cc4ccc(Cl)cc4)C3=O)cc2)CC1
Found: T

Lookup: Write down the call the test reported for this molecule. Item: CC(=O)NC(c1ccco1)c1cc(Cl)c2ccccc2c1O (stereo not given)
Found: F

Lookup: Write down the call the test reported for this molecule. Item: CC(C)(C)OC(=O)[C@H](Cc1ccccc1)NC(=O)c1nc[nH]c1C(=O)N[C@@H](CCCCN)C(=O)OC(C)(C)C
Found: F

###

- tgt: Trace amine-associated receptor 1 (Homo sapiens)
- Sequence (Q96RJ0 whole entry): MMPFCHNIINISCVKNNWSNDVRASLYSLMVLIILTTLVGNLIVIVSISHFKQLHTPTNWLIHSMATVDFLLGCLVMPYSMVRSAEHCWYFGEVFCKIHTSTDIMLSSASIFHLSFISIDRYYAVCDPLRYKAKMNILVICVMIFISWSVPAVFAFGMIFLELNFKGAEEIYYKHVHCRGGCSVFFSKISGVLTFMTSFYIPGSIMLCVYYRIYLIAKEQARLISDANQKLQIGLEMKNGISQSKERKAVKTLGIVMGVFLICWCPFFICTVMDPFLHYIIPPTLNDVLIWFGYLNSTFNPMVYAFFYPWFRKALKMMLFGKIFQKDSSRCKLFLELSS
- run_description: Counterscreen for agonists of the human trace amine associated receptor 1 (hTAAR1): Fluorescence-based cell-based high throughput dose response assay to identify hTAAR1 agonist that also desensitize TAAR1 receptor response.
- Assay type: functional
Calls of active or inactive are those of the source.
Could you please pick one outcome from this set? t for active, f for inactive

Illustrative cases are given below, each with its answer.
Cc1ccc(Nc2nc(N)c3ccccc3n2)cc1C    t
O=C(NCN1CCc2ccccc2C1)c1cnccn1    t
O=C(CC1C(=O)NCCN1CCCc1ccccc1)NCCc1ccccc1Cl (stereo unspecified)    t
O=C(N[C@H](C(=O)N1CCC[C@H]1C(=O)NCCc1ccccc1Cl)c1ccccc1)c1ccco1    f
COc1ccccc1N1CN(CCc2ccccc2)CN=C1S    t

Lookup: Write down the call the test reported for this compound. Item: O=C(CSC(=S)N1CCCC1)NCCc1ccccc1
Found: t

###

- Test system: Streptococcus
- run_description: Group A Streptococcus viability loss, dose response, counter-screen for streptokinase expression inhibitor project, luminescence, BacTiterGlo (AID 1915);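 also: potency for reduction of bacterial viability or growth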
- Assay type: functional, organism-based
Calls of active or inactive are those of the source.
This section presents molecules with their documented EC50 values.

In the examples that follow, each entry is paired with its recorded EC50.
C(=N\Nc1ncnc2sc3c(c12)CCC3)/c1cccs1    19.5 µM (active)
COc1ccc(-c2noc(-c3ccccc3-c3ccccc3)n2)cc1    > 150 µM (not active)
Cc1cc(NC(=O)CN2C(=O)c3ccccc3C2=O)no1    > 150 µM (not active)
Cc1cc(C(F)(F)F)c(C#N)c(SCC(=O)Nc2nc3cc(Br)ccc3s2)n1    > 150 µM (not active)

Looking up O=C(/C=C/c1ccccc1)c1cc(Br)ccc(=O)c1O , I see its EC50 listed as 7.42 µM (active)

Looking up Cc1cc(/C=C2\SC(=S)NC2=O)c(C)n1-c1cccc(O)c1 , I see its EC50 listed as 49.7 µM (inconclusive)

###

This section presents molecules with their documented EC50 values.
- tgt: UniProtKB G5EF15
- Sequence (G5EF15 whole entry, the tested form may be a part): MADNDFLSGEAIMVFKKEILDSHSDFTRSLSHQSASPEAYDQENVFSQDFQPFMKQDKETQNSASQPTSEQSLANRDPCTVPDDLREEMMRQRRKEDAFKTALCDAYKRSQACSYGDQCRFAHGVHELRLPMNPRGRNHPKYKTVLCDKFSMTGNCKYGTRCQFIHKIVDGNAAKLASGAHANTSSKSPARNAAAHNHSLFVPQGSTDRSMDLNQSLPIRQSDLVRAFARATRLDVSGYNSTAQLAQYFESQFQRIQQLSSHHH
- run_description: inhibitors of POS-1/mex-3 RNA binding, dose response, biochemical, fluorescence polarization (AID 1964);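 also: purified POS-1 fused to maltose binding protein made in E. coli; potency of compounds blocking POS-1 binding to fluorescent RNA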
Active and inactive are the calls of the source.

In the examples that follow, each entry is paired with its recorded EC50.
NC(=O)c1sc2nnc(-c3ccccc3)c(-c3ccccc3)c2c1N    > 300 µM (not active)
O=C1NC(=O)N(c2ccccc2)C(=O)/C1=C\NN1C(=O)c2cccc3cccc(c23)C1=O    > 300 µM (not active)
CCOC(=O)c1ccc(N/C=C2\CCCCC2=O)cc1    > 300 µM (not active)
N=c1c(C(=O)NCC2CCCO2)cc2c(=O)n3ccccc3nc2n1Cc1ccccc1Cl (stereo unspecified)    104 µM (active)

Looking up Cc1ccc(/C=N/NC(=O)c2nnn(-c3nonc3N)c2-c2cccs2)cc1 , I see its EC50 listed as > 300 µM (not active)

Looking up CSc1nnc(N2C(=O)C(O)=C(C(=O)c3ccco3)C2c2ccc(F)cc2)s1 (stereo unspecified) , I see its EC50 listed as > 150 µM (not active)

Looking up O=C(CN1C(=O)/C(=C\C=C\c2ccccc2)SC1=S)Nc1ccc(F)cc1 , I see its EC50 listed as > 300 µM (not active)

Looking up Cc1ccc(/C=C/C(=O)c2ccc(N3CCOCC3)cc2)s1 , I see its EC50 listed as > 300 µM (not active)

Looking up COCCCNC(=O)C(C#N)c1nc2ccccc2nc1N1CCCC1 (stereo unspecified) , I see its EC50 listed as 23.8 µM (active)

Looking up COc1ccc(C2C(C#N)=C(N)OC3=C2C(=O)CC(C)C3)c(OC)c1OC (stereo unspecified) , I see its EC50 listed as > 300 µM (not active)

Looking up Cc1ccc(N/C=C2/Sc3ccccc3NC2=O)cc1 , I see its EC50 listed as > 300 µM (not active)
